target: hD4.2 receptor (Homo sapiens, UniProt P21917, DEL265-296); construct: purchased BioSignal Packard Inc., Montreal, Canada; assay: Radioligand binding, dopamine D4 ([3H]YM-09151-2); conditions: Table 4; [3H]YM-09151-2 0.06 nM; read-out: Binding affinity, IC50 (nM) D4
Sequence (P21917 with tags, fused parts or gaps DEL265-296): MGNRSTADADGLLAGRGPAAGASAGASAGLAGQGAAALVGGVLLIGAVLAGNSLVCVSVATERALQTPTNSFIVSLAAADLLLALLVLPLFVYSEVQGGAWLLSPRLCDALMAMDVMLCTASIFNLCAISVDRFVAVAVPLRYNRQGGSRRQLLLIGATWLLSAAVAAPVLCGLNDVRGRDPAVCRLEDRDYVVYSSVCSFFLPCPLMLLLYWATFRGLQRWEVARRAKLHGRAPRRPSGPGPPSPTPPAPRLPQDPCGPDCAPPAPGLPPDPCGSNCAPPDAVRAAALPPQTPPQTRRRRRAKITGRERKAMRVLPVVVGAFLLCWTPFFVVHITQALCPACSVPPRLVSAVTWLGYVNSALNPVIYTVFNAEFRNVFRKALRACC
Please provide measured IC50 for the entries that follow.

Which IC50 value is on record for CC1(c2ccccc2)C(=O)c2c(N3CCNCC3)cc(Cl)cc2N(Cc2ccccc2)C1=O (stereo not drawn) ? > 10000 nM

Which IC50 value is on record for CC1(c2ccc(O)cc2)C(=O)c2c(N3CCNCC3)cc(Cl)cc2N(Cc2ccccc2)C1=O (racemic) ? > 10000 nM

Which IC50 value is on record for COc1ccc([C@]2(C)C(=O)c3c(N4CCNCC4)cc(Cl)cc3N(Cc3ccccc3)C2=O)cc1 ? > 10000 nM

====

observed-property: melting point

Which melting point value is on record for CCN(CC)c1ccc(C2(C)C(=O)c3c(N4CCN(C)CC4)cc(Cl)cc3N(Cc3ccccc3)C2=O)cc1 (stereo not shown) [Example 5] ? 204 to 206 °C

Which melting point value is on record for CC1(c2ccc(O)cc2)C(=O)c2c(N3CCNCC3)cc(Cl)cc2N(Cc2ccccc2)C1=O (racemic) [Example 14] ? 197 to 200 °C

Which melting point value is on record for CC1(c2ccc([N+](=O)[O-])cc2)C(=O)c2c(N3CCNCC3)cc(Cl)cc2N(Cc2ccccc2)C1=O (stereo not shown) [Example 15] ? 145 to 146 °C

Which melting point value is on record for CC1(c2ccc(Br)cc2)C(=O)c2c(N3CCNCC3)cc(Cl)cc2N(Cc2ccccc2)C1=O (stereo not shown) [Example 20] ? 116 to 117 °C

Which melting point value is on record for CC1(c2cccc(O)c2)C(=O)c2c(N3CCNCC3)cc(Cl)cc2N(Cc2ccccc2)C1=O (stereo not shown) [Example 51] ? 238 to 240 °C

Which melting point value is on record for CC1(c2ccc(O)cc2)C(=O)c2c(N3CCNCC3)cc(Cl)cc2N(Cc2cccc([N+](=O)[O-])c2)C1=O (stereo not shown) [Example 24] ? 252 to 253 °C

Which melting point value is on record for COc1ccc(C2(C)C(=O)c3c(N4CCNCC4)cc(Cl)cc3N(Cc3nc4ccccc4[nH]3)C2=O)cc1 (stereo not shown) [Example 43] ? 178 to 179 °C

Which melting point value is on record for CN1CCN(c2cc(Cl)cc3c2C(=O)C(C)(c2ccc([N+](=O)[O-])cc2)C(=O)N3Cc2ccccc2)CC1 (stereo not shown) [Example 3] ? 179 to 180 °C

Which melting point value is on record for CCNc1ccc([C@]2(C)C(=O)c3c(N4CCN(C)CC4)cc(Cl)cc3N(Cc3ccccc3)C2=O)cc1 (stereo in doubt) [Example 6] ? 153 to 155 °C

Which melting point value is on record for COc1ccc(CN2C(=O)C(C)(c3ccc(OC)cc3)C(=O)c3c(N4CCNCC4)cc(Cl)cc32)cc1 (stereo not shown) [Example 31] ? 182 to 183 °C

Which melting point value is on record for COc1ccc(C2(C)C(=O)c3c(N4CCNCC4)cc(Cl)cc3N(CC3CCCCC3)C2=O)cc1 (stereo not shown) [Example 48] ? 127 to 128 °C

Which melting point value is on record for COc1ccc(C2(C)C(=O)c3c(N4CCNCC4)cc(Cl)cc3N(Cc3cccc([N+](=O)[O-])c3)C2=O)cc1 (stereo not shown) [Example 23] ? 153 to 154 °C

Which melting point value is on record for CC1(c2ccc(O)cc2)C(=O)c2c(N3CCNCC3)cc(Cl)cc2N(CC2CCCCC2)C1=O (stereo not shown) [Example 49] ? 175 to 176 °C

Which melting point value is on record for COc1ccc(C2(C)C(=O)c3c(N4CCNCC4)cc(Cl)cc3N(Cc3cccnc3)C2=O)cc1 (stereo not shown) [Example 37] ? 160 to 162 °C

Which melting point value is on record for CC1(c2ccc(O)cc2)C(=O)c2c(N3CCNCC3)cc(Cl)cc2N(Cc2ccc3ccccc3n2)C1=O (stereo not shown) [Example 45] ? 278 to 279 °C

Which melting point value is on record for COc1ccc(C2(C)C(=O)c3c(N4CCNCC4)cc(Cl)cc3N(Cc3ccccc3Br)C2=O)cc1 (stereo not shown) [Example 35] ? 150 to 151 °C

Which melting point value is on record for COc1ccc(C2(C)C(=O)c3c(N4CCNCC4)cc(Cl)cc3N(Cc3ccccc3)C2=O)cc1 (racemic) [Example 13] ? 120 to 123 °C

Which melting point value is on record for COc1ccc(C2(C)C(=O)c3c(N4CCNCC4)cc(Cl)cc3N(Cc3ccc(-c4ccccc4)cc3)C2=O)cc1 (stereo not shown) [Example 41] ? 142 to 144 °C

Which melting point value is on record for CN1CCN(c2cc(Cl)cc3c2C(=O)C(C)(c2ccc(O)cc2)C(=O)N3Cc2cccc([N+](=O)[O-])c2)CC1 (stereo not shown) [Example 8] ? 262 to 264 °C

Which melting point value is on record for CN1CCN(c2cc(Cl)cc3c2C(=O)C(C)(c2ccc(OCc4ccccc4)c(Br)c2)C(=O)N3Cc2ccccc2)CC1 (stereo not shown) [Example 12] ? 95 to 97 °C

Which melting point value is on record for CC1(c2ccc(Cl)cc2)C(=O)c2c(N3CCNCC3)cc(Cl)cc2N(Cc2ccccc2)C1=O (stereo not shown) [Example 19] ? 135 to 136 °C

Which melting point value is on record for COc1ccc(C2(C)C(=O)c3c(N4CCNCC4)cc(Cl)cc3N(Cc3ccc4ccccc4n3)C2=O)cc1 (stereo not shown) [Example 44] ? 200 to 201 °C
